system: Plasmodium falciparum; assay: GSK_TCMDC: Inhibition of Plasmodium falciparum 3D7 in whole erythrocytes, using parasite LDH activity as an index of growth.; assay type: functional, organism-based; details: Plasmodium falciparum, 3D7
Documented XC50 across a set of molecules
The answer is to be given in µM; state only the numeric part.

A selection of reference data follows.
- molecule: "Cc1cnc(N2CCN(CC3CCN(C)CC3)CC2)nc1Oc1ccc(-n2ccnc2)cc1"
  experimentalSystem: "Plasmodium falciparum"
  unitAbbrev: "µM"
  XC50: 0.725
- molecule: "Cc1nnc2c(NC(=O)NC3CCCC3)cc3cc(-c4ccc(CN5CCN(C)CC5)cc4)ccc3n12"
  experimentalSystem: "Plasmodium falciparum"
  unitAbbrev: "µM"
  XC50: 1.02
- molecule: "O=C(NC1CCN(Cc2ccccc2)CC1)c1csc2nc(-c3ccc(Cl)cc3)cn12"
  experimentalSystem: "Plasmodium falciparum"
  unitAbbrev: "µM"
  XC50: 0.911

GET /values?readout=XC50&system=Plasmodium falciparum&item= `Nc1nc(N)c2c3c(ccc2n1)NCCC3`
0.734

Also need `Cc1cc(C)c2cc(CNCCCNc3nc4ccccc4[nH]3)[nH]c2c1` , thanks.
0.768

Also need N#Cc1ccc2c(c1)CCN(CCC1CCC(NC(=O)c3cc4cccc(Cl)c4[nH]3)CC1)CC2 (stereo not given) , thanks.
0.576

Also need Cc1ccccc1C1CCN(C2CCC(NC(=O)c3cc(-c4ccccc4)oc3C)CC2)CC1 (stereo not given) , thanks.
1.03

Data origin: ChEMBL document CHEMBL1157539
